# TARGET DESC: CDK2/cyclin A2 (Homo sapiens)
# Construct: purchased Carna Biosciences, Inc. QS S Assist CDK2/Cyclin A2_FP Kit
# ASSAY PROTOCOL: Human CDK2/cyclin A2 inhibitory activity (QS S Assist CDK2/Cyclin A2_FP Kit, IMAP fluorescence polarization)
# Type: biochemical
# ASSAY SETUP: Human CDK2/cyclin A2 inhibitory activity; read-out: CDK2 Activity symbol
Consider the following compounds and their measured IC50 readings.

Some solved cases for reference:
[
  {
    "COMPOUND": "COCC(C)(C)Nc1nc([C@@H](C)O)cc2cnc(Nc3ccc(N4CCNCC4)nn3)nc12",
    "TARGET DESC": "CDK2/cyclin A2 (Homo sapiens)",
    "IC50": "≥ 100 nM"
  },
  {
    "COMPOUND": "C[C@@H](O)c1nc(N[C@H]2CCCOC2)c2nc(Nc3ccc(CN4CCNCC4)cn3)ncc2c1Cl",
    "TARGET DESC": "CDK2/cyclin A2 (Homo sapiens)",
    "IC50": "≥ 100 nM"
  },
  {
    "COMPOUND": "CC(O)c1cc2cnc(Nc3ccc(N4CCNCC4)cn3)nc2c(NC(C)(C)C)n1 (centres unmarked)",
    "TARGET DESC": "CDK2/cyclin A2 (Homo sapiens)",
    "IC50": "≥ 100 nM"
  },
  {
    "COMPOUND": "CC(O)c1cc2cnc(Nc3ccc(N4CCNCC4)cn3)nc2c(NC(C)C(F)(F)F)n1 (centres unmarked)",
    "TARGET DESC": "CDK2/cyclin A2 (Homo sapiens)",
    "IC50": "≥ 100 nM"
  },
  {
    "COMPOUND": "CC(C)Nc1nc([C@@H](C)O)cc2cnc(Nc3ccc(CN4CCN(C)CC4)cn3)nc12",
    "TARGET DESC": "CDK2/cyclin A2 (Homo sapiens)",
    "IC50": "≥ 100 nM"
  },
  {
    "COMPOUND": "CO[C@H](C)c1cc2cnc(Nc3ccc(N4CCNCC4)nn3)nc2c(NC2CCOCC2)n1",
    "TARGET DESC": "CDK2/cyclin A2 (Homo sapiens)",
    "IC50": "≥ 100 nM"
  }
]

So, CC(=O)c1cc2cnc(Nc3ccc(N4CCNCC4)cn3)nc2c(N(C)C(C)C)n1 ? Its IC50 was ≥ 100 nM

Briefly, IC50 measured for CC(C)Nc1nc(C(F)F)cc2cnc(Nc3ccc(OCCN(C)C)cn3)nc12 : 10 to 100 nM

Notebook: CC(C)Nc1nc(C(C)O)cc2cnc(Nc3ccc(CN4CCNCC4)cn3)nc12 (centres unmarked) , IC50 read as ≥ 100 nM

----------
# TARGET DESC: CDK4/cyclin D3 (Homo sapiens)
# Construct: purchased Carna Biosciences, Inc. QS S Assist CDK4/Cyclin D3_FP Kit
# Sequence (P11802 whole entry): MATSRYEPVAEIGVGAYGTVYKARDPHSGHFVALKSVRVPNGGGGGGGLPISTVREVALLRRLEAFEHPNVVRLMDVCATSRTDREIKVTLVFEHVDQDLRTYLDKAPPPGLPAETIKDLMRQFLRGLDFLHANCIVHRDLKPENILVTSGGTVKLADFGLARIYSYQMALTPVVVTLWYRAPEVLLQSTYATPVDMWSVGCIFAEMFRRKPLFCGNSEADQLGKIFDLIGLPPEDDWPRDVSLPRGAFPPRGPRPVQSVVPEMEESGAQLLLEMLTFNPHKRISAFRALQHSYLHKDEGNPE
# Sequence (P30281 whole entry partner): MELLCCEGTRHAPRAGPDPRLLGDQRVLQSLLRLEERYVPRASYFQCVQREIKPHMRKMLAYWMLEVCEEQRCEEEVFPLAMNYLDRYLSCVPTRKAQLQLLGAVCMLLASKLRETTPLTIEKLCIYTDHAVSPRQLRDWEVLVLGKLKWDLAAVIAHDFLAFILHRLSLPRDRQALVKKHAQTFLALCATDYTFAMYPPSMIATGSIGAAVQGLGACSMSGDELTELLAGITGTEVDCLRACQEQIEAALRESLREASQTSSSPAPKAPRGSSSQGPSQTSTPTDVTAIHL
# ASSAY PROTOCOL: Human CDK4/cyclin D3 inhibitory activity (QS S Assist CDK4/Cyclin D3_FP Kit, IMAP fluorescence polarization)
# Type: biochemical
# ASSAY SETUP: Human CDK4/cyclin D3 inhibitory activity; read-out: CDK4 Activity symbol
METRIC NAME: IC50

[
  {
    "MOLECULE": "C[C@@H](O)c1nc(N[C@H]2CC[C@H](O)CC2)c2nc(Nc3ccc(CN4CCNCC4)cn3)ncc2c1Cl",
    "IC50": "< 10 nM"
  },
  {
    "MOLECULE": "COC(=O)[C@H]1CC[C@H](CNc2nc(C(C)OC)cc3cnc(Nc4ccc(CN5CCNCC5)cn4)nc23)CC1 (stereo partly shown)",
    "IC50": "< 10 nM"
  },
  {
    "MOLECULE": "COC(C)c1cc2cnc(Nc3ccc(CN4CCNCC4)cn3)nc2c(NCC(C)(C)OC)n1 (stereo not shown)",
    "IC50": "10 to 100 nM"
  },
  {
    "MOLECULE": "CC(O)c1cc2cnc(Nc3ccc(N4CCNCC4)cn3)nc2c(NC(C)c2cc[nH]n2)n1 (stereo not shown)",
    "IC50": "< 10 nM"
  },
  {
    "MOLECULE": "FC(F)c1cc2cnc(Nc3ccc(N4CCNCC4)cn3)nc2c(N[C@H]2CCCNC2)n1",
    "IC50": "< 10 nM"
  },
  {
    "MOLECULE": "CO[C@H](C)c1cc2cnc(Nc3ccc(N4CCC5(CC4)COC5)cn3)nc2c(NC(C)C)n1",
    "IC50": "10 to 100 nM"
  }
]

Alright, here's another molecule for you.
IC50 measured on CO[C@H](C)c1cc2cnc(Nc3ccc(N4CCNCC(C)(C)C4=O)cn3)nc2c(NC(C)C)n1 = 10 to 100 nM
